- Assay overview: method code SF-AS, from PMID: 6889867
- Condition info: pH 7.4
Catalogue of logD readings, one per entry.
Readout kind: logD

>  <Smiles structure>
COc1cc(Cc2cnc(N)nc2N)ccc1C

>  <Readout kind>
logD

>  <Result number>
1.95

$$$$
>  <Smiles structure>
COc1cc(Cc2cnc(N)nc2N)cc2c1OCO2

>  <Readout kind>
logD

>  <Result number>
1.19

$$$$
>  <Smiles structure>
COc1ccc(Cc2cnc(N)nc2N)cc1O

>  <Readout kind>
logD

>  <Result number>
0.55

$$$$
>  <Smiles structure>
Nc1ncc(Cc2cc(Cl)c(Cl)cc2Cl)c(N)n1

>  <Readout kind>
logD

>  <Result number>
3.6

$$$$
>  <Smiles structure>
COc1cc(OC)c(Cl)c(Cc2cnc(N)nc2N)c1Cl

>  <Readout kind>
logD

>  <Result number>
2.32

$$$$
>  <Smiles structure>
COc1cc(Cc2cnc(N)nc2N)c(Cl)c(OC)c1

>  <Readout kind>
logD

>  <Result number>
1.94

$$$$
>  <Smiles structure>
Nc1ncc(Cc2ccc3c(c2)OCO3)c(N)n1

>  <Readout kind>
logD

>  <Result number>
1.3

$$$$
>  <Smiles structure>
COc1c(OCc2ccccc2)cc(Cc2cnc(N)nc2N)cc1OCc1ccccc1

>  <Readout kind>
logD

>  <Result number>
3.7

$$$$
>  <Smiles structure>
COC(=O)c1c(OC)cc(Cc2cnc(N)nc2N)cc1OC

>  <Readout kind>
logD

>  <Result number>
0.76

$$$$
>  <Smiles structure>
Nc1ncc(Cc2cc3c(cc2Br)OCO3)c(N)n1

>  <Readout kind>
logD

>  <Result number>
2.3

$$$$
>  <Smiles structure>
Nc1ncc(Cc2cc(Cl)c(Cl)c(Cl)c2)c(N)n1

>  <Readout kind>
logD

>  <Result number>
3.45

$$$$
>  <Smiles structure>
COc1cc(Cc2cnc(N)nc2N)cc(OC)c1C(C)(C)O

>  <Readout kind>
logD

>  <Result number>
1.3

$$$$
